- system_tested: UniProt:P51681
measured_quantity: pIC50
On this scale, pIC50 is minus log10 of a concentration expressed in M (mol/L).

Use these answered entries as a reference point.
> print(dat)
                               input.smiles  measured.quantity  value.measured
1  CC[N+](CC)(CC)Cc1ccc(NC(=O)C2=Cc3cc(-c4ccccc4)ccc3CC2)cc1              pIC50            6.08
2  Cc1cccc[n+]1Cc1ccc(NC(=O)C2=Cc3cc(-c4ccccc4)ccc3CC2)cc1              pIC50            5.49
3  CCC(CC)[N+](C)(C)Cc1ccc(NC(=O)C2=Cc3cc(-c4ccc(C)cc4)ccc3OCC2)cc1              pIC50            8.48

# get_value(readout= pIC50, system= UniProt:P51681) for Cc1ccc(-c2ccc3c(c2)C=C(C(=O)Nc2ccc(C[N+](C)(C)C4CCSCC4)cc2)CCO3)cc1 8.51

# get_value(readout= pIC50, system= UniProt:P51681) for Cc1ccc(-c2ccc3c(c2)C=C(C(=O)Nc2ccc(C[N+]4(C)CCCCC4)cc2)CCO3)cc1 7.37

# get_value(readout= pIC50, system= UniProt:P51681) for Cc1ccc(-c2ccc3c(c2)C=C(C(=O)Nc2ccc(CC[N+]4(C)CCCCC4)cc2)CCO3)cc1 6.96

---

- system_tested: UniProt P51681
pIC50: −log10 of the molar value.
Think of 7 as a floor: if pIC50 stands on it or above, it is label 1; beneath it, label 0.

Exam item: decide whether the reported pIC50 for C[N+]1(Cc2ccc(NC(=O)C3=Cc4cc(-c5ccccc5)ccc4CC3)cc2)CCCCC1 is at least 7. label 0

Exam item: decide whether the reported pIC50 for CCCC[P+](CCCC)(CCCC)Cc1ccc(NC(=O)/C=C/c2cccc(-c3ccc(C)cc3)c2)cc1 is at least 7. label 0

---

Target or system C-C chemokine receptor type 5 (Homo sapiens, UniProt P51681): recorded IC50 listed per item.
Answer with a number only, understood to be in nM.

Use these answered entries as a reference point.
> print(dat)
                               input.smiles                             system.tested  value.measured
1  C[N+]1(Cc2ccc(NC(=O)C3=Cc4cc(-c5ccccc5)ccc4CC3)cc2)CCOCC1  C-C chemokine receptor type 5 (Homo sapiens, UniProt P51681)            1200
2  Cc1ccc(-c2ccc3c(c2)C=C(C(=O)Nc2ccc(C[N+]4(C)CCCCC4)cc2)CC3)cc1  C-C chemokine receptor type 5 (Homo sapiens, UniProt P51681)             240
3  Cc1ccc(-c2ccc3c(c2)C=C(C(=O)Nc2ccc(C[N+](C)(C)CCCO)cc2)CCO3)cc1  C-C chemokine receptor type 5 (Homo sapiens, UniProt P51681)             6.8

# get_value(readout= IC50, system= C-C chemokine receptor type 5 (Homo sapiens, UniProt P51681)) for Cc1ccc(-c2ccc3c(c2)C=C(C(=O)Nc2ccc(C[N+](C)(C)C4CCC(=O)CC4)cc2)CCO3)cc1 4.5
